Values were extracted from paper PMC3841161.

- Test system: P. aeruginosa [KCTC 1637]
- Format: cell-based, Pseudomonas aeruginosa
- Applied Conditions: KCTC 1637, 20 h
Residues, ends and D or L forms follow the SMILES beside them.
Parameter: Minimal Inhibitory Concentration (MIC) P. aeruginosa [KCTC 1637]

N=C(N)NCCC[C@H](NC(=O)[C@@H](N)Cc1c[n+](CCCCCCCc2ccccc2)cn1CCCCCCCc1ccccc1)C(N)=O	4 (6.1) µg/mL

Alright, here's another compound for you.
Problem: Give the value of Minimal Inhibitory Concentration (MIC) P. aeruginosa [KCTC 1637] reported for the following: N=C(N)NCCC[C@H](NC(=O)[C@H](Cc1c[nH]c2ccccc12)NC(=O)[C@@H](N)CCCNC(=N)N)C(N)=O [RWR-NH2, reference compound] (H-Arg-Trp-Arg-NH2)
Result: >64 (>124) µg/mL
